Provenance of the data: patent US20240148821A1

biological target: protein-protein interaction between Kras and SOS1 (biotin-tagged human Kras loaded with GDP, His-tagged human SOS1) (Homo sapiens (Human), UniProt P01116, G12D); assay: Protein-protein interaction inhibition between Kras and SOS1 (KrasG12D-SOS PPI) using AlphaScreen; type: biochemical; conditions: AlphaScreen; biotin-tagged human Kras loaded with GDP, His-tagged human SOS1; read-out: KRAS G12D-SOS PPI IC50;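 also: kras produced in E. coli, Ni-coupled donor beads and streptavidin acceptor beads, excitation 680 nm with emission detected at 520–620 nm via singlet oxygen transfer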
pIC50: −log10 of the molar value. Numbered stars: 1 amine (or outer) side, 2 acyl side, 3 side chain; on linkers, the order of the positions; unused ones are H or OH. Bridge positions count the residues as written; N and C are the ends. Square brackets hold non-standard residues; d marks the D form. Peptide text beside a SMILES is read from it. * marks the point of attachment. hPhe(3-Cl-4-CF3) = N[C@@H](CCc1ccc(C(F)(F)F)c(Cl)c1)C(=O)O; hPhe(3-F,4-CF3) = N[C@@H](CCc1ccc(C(F)(F)F)c(F)c1)C(=O)O; NMedβ3hAla = C[C@H](CC(=O)[*:2])N(C)[*:1]; NMeAla(cPent) = CN[C@@H](CC1CCCC1)C(=O)O; NMeCha = CN[C@@H](CC1CCCCC1)C(=O)O; NMeD = CN[C@@H](CC(=O)O)C(=O)O; NMeL = CN[C@@H](CC(C)C)C(=O)O; NMeAc5c = CNC1(C(=O)O)CCCC1; NMeV = CN[C@H](C(=O)O)C(C)C; d(β3hA) = C[C@@H](N)CC(=O)O; NMeS = CN[C@@H](CO)C(=O)O; NMeA = CN[C@@H](C)C(=O)O; Piperidide = C1CCN(*)CC1; Ac5c = NC1(C(=O)O)CCCC1; Aze = O=C(O)[C@@H]1CCN1; CH2CMe2OH = CC(C)(O)C*; Isopentyl = CC(C)CC*; NEtG = CCNCC(=O)O; Sar = CNCC(=O)O
Lab note: compare pIC50 against 7. Equal or greater, write label 1. Smaller, write label 0.

# example entries with known answers
CC(C)C[C@H]1C(=O)N[C@@H]([C@@H](C)O)C(=O)N(C)[C@@H](C)C(=O)N2CC[C@H]2C(=O)N(C)[C@@H](CC2CCCCC2)C(=O)N(C)CC(=O)N[C@@H](CCc2ccc(C(F)(F)F)c(Cl)c2)C(=O)N2CCC[C@H]2C(=O)NC2(CCCC2)C(=O)N(C)[C@@H](C(C)C)C(=O)N(C)[C@H](C(=O)N2CCCCC2)CC(=O)N1C [Compound 450] ([NMeL]T[NMeA][Aze][NMeCha][Sar][hPhe(3-Cl-4-CF3)]P[Ac5c][NMeV][NMeD]-Piperidide; lactam N-11) = label 1
CC[C@H](C)[C@@H]1NC(=O)[C@H](CC(C)C)N(C)C(=O)C[C@@H](C)NC(=O)[C@H](CC(C)C)N(C)C(=O)C2(CCCC2)NC(=O)[C@H](COCC(C)(C)O)N(C)C(=O)[C@H](CCc2ccc(C(F)(F)F)c(Cl)c2)NC(=O)CN(C)C(=O)[C@H](COCCC(C)C)N(C)C(=O)CN(C)C(=O)CN(CC)C1=O [Compound 1464] (cyclo([Ac5c][NMeL][d(β3hA)][NMeL]I[NEtG][Sar][NMeS](Isopentyl)[Sar][hPhe(3-Cl-4-CF3)][NMeS](CH2CMe2OH))) = label 0
CC[C@H](C)[C@@H]1NC(=O)[C@H](CC(C)C)N(C)C(=O)C[C@@H](C)N(C)C(=O)[C@H](CC(C)C)NC(=O)C2(CCCC2)N(C)C(=O)[C@H](CC(C)C)NC(=O)[C@H](CCc2ccc(C(F)(F)F)c(F)c2)NC(=O)CN(C)C(=O)[C@H](CC2CCCCC2)N(C)C(=O)CN(C)C(=O)CN(C)C1=O [Compound 2] (cyclo(I[Sar][Sar][NMeCha][Sar][hPhe(3-F,4-CF3)]L[NMeAc5c]L[NMedβ3hAla][NMeL])) = label 1

Note: attention shifts to another entry.
Input line: Quick check: does CC[C@H](C)[C@@H]1NC(=O)[C@H](C)N(C)C(=O)C[C@@H](C(=O)N2CCCCC2)N(C)C(=O)[C@H](C(C)C)N(C)C(=O)C2(CCCC2)NC(=O)[C@@H]2CCCN2C(=O)[C@H](CCc2ccc(C(F)(F)F)c(Cl)c2)NC(=O)CN(C)C(=O)[C@H](CC2CCCCC2)N(C)C(=O)[C@@H]2CCN2C(=O)[C@H](CC2CCCC2)N(C)C1=O [Compound 1566] ([NMeA]I[NMeAla(cPent)][Aze][NMeCha][Sar][hPhe(3-Cl-4-CF3)]P[Ac5c][NMeV][NMeD]-Piperidide; lactam N-11) have pIC50 greater than or equal to 7?
Output line: label 1
